Molecular target: T1, human IL-36γ, truncated (human, UniProt Q9NZH8 18-169)
T1 construct: Bought from R&D Systems (cat 6835-IL); also called human IL-36 gamma; hIL-36gamma
T1 sequence: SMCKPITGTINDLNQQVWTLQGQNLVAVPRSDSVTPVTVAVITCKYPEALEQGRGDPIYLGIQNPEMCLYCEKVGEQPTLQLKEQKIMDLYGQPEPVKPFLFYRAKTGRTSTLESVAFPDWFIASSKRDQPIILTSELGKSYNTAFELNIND
Assay: SPR, Biacore T200, antibody on chip, IL-36 as analyte, 1:1 Langmuir fit
Reported Property: kon (M⁻¹ s⁻¹)
Field format: number, assumed M⁻¹ s⁻¹, no unit text.

Examples with their reported kon follow.
binder="144D666C (antibody, V domains shown, Mouse monoclonal from hybridoma; mouse IgG heavy and lambda light chain) VH: EVQLQQSGAELVKPGASVKLTCTASGFNIKDTYIYWVKQRPAQGLEWIGRIDPANAYTKFDPKFQGKATLTADTSSNTAYLQLSSLTSEDTAVYYCTRFHWYGSSFFFDYWGQGTTLTVSS VL: QAVVTQESALTTSPGETVTLTCRSSTGAVTTSNYANWVQEKPDHLFTGLIGGTDNRPPGVPARFSGSLIGDKAALTITGAQTEDEAIYFCALWYSNLWVFGGGTKLTVL" reported_property=kon value_measured=625000
binder="144D464A (antibody, V domains shown, Mouse monoclonal from hybridoma; mouse IgG heavy and lambda light chain; also called mouse antibody 144D464A) VH: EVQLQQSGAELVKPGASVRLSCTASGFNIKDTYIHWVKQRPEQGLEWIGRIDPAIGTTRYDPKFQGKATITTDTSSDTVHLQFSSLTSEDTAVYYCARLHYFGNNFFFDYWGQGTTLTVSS VL: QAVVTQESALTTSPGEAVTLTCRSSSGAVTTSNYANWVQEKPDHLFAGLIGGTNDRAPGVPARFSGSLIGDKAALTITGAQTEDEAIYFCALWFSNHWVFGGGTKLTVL" reported_property=kon value_measured=84000
binder="chimeric m/h 144D464A (antibody, human IgG1, lambda, V domains shown, Mouse VH/VL joined to human IgG1 constant and human Ig lambda (IGLC2) constant; also called chimeric mouse/human (m/h) 144D464A antibody) VH: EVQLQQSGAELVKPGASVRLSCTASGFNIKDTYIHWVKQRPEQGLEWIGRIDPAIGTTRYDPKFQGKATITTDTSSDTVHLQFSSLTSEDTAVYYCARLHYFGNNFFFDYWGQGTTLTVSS VL: QAVVTQESALTTSPGEAVTLTCRSSSGAVTTSNYANWVQEKPDHLFAGLIGGTNDRAPGVPARFSGSLIGDKAALTITGAQTEDEAIYFCALWFSNHWVFGGGTKLTVLG" reported_property=kon value_measured=147000
binder="144L472A (antibody, V domains shown, Mouse monoclonal from hybridoma; mouse IgG heavy and lambda light chain) VH: EVQLQQSGAELVKPGASVKLSCTVSGFNIKDTYMYWVKQRPEQGLEWIGRIDPANGYAKYDPKFQGKATLTADTSSNTAYLQLSSLTSEDTAVYFCARFHWYDSAFYFDFWGQGTTLTVSS VL: QAVVTQESALTTSPGETVTLTCRSSSGAVTTSNYANWVQEKPDHLFTGLIGGTNNRAPGVPARFSGSLIGDKAALTITGAQTEDEAIYFCGLWYSNHWVFGGGTKLTVL" reported_property=kon value_measured=2070

Please look at this binder and report its kon: 144L249B (antibody, V domains shown, Mouse monoclonal from hybridoma; mouse IgG heavy and lambda light chain; also called mouse antibody 144L249B) VH: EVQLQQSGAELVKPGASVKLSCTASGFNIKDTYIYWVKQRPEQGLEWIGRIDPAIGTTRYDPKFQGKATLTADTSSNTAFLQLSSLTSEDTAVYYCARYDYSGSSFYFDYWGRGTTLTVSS VL: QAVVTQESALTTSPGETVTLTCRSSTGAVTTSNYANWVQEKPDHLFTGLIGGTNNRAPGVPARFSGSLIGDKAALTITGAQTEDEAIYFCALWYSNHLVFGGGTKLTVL
516000
